These measurements were taken from ChEMBL document CHEMBL1138262.

- Target Of Assay: C-X-C chemokine receptor type 4 (Homo sapiens)
- Assay Explanation: Displacement of biotinylated TN14003 from CXCR4 in MDA-MB-231 cells
- Assay type: cell-based
Parameter Measured: EC (nM)

Sample answers from the record:
N=C(N)N/N=C/c1ccc(/C=N/NC(=N)N)cc1; 100
c1ccc(CNCc2ccc(CNCc3ccccc3)cc2)cc1; 80

[1] Fc1cccc(NCc2ccc(CNc3cccc(F)c3)cc2)c1
[2] COc1ccccc1NCc1ccc(CNc2ccccc2OC)cc1
[3] FC(F)(F)c1cccc(NCc2ccc(CNc3cccc(C(F)(F)F)c3)cc2)c1
[4] CCc1ccc(NCc2ccc(CNc3ccc(CC)cc3)cc2)cc1
Enquiry: Sort (4 molecules) by EC: min first. List the labels in the requested order.
Return: 2, 4, 1, 3

----------
- Target Of Assay: C-X-C chemokine receptor type 4 (Homo sapiens, UniProt P61073)
- Sequence (P61073 whole entry): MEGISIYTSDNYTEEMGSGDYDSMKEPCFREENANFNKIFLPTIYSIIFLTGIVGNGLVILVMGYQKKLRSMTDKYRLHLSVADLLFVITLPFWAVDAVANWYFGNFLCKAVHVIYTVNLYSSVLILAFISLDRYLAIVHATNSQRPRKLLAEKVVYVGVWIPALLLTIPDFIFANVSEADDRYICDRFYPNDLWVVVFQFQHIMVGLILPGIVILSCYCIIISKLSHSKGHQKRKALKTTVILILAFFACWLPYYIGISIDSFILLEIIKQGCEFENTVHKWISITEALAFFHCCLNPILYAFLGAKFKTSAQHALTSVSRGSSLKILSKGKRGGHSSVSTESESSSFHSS
- Assay Explanation: Displacement of biotinylated TN14003 from CXCR4 in MDA-MB-231 cells
- Format: cell-based
Parameter Measured: EC (nM)

CN(Cc1ccc(CN(C)c2ccccc2)cc1)c1ccccc1; 100

[P] c1ccc(NCc2ccccc2CNc2ccccc2)cc1
[Q] N#Cc1ccc(NCc2ccc(CNc3ccc(C#N)cc3)cc2)cc1
[R] CC(Nc1ccccc1)c1ccc(C(C)Nc2ccccc2)cc1 (stereo not drawn)
Enquiry: Rank the items in ascending order with respect to EC. I would appreciate it if you listed the labels in the requested order.
Return: R, P, Q

[1] Fc1ccc(NCc2ccc(CNc3ccc(F)cc3)cc2)cc1
[2] Cc1ccc(NCc2ccc(CNc3ccc(C)cc3)cc2)cc1
[3] COc1ccc(NCc2ccc(CNc3ccc(OC)cc3)cc2)cc1
[4] c1ccc(NCc2c3ccccc3c(CNc3ccccc3)c3ccccc23)cc1
[5] Fc1ccccc1NCc1ccc(CNc2ccccc2F)cc1
Enquiry: Which order do these items take when sorted by rising EC? List them. Provide the ranking by listing each label in its place in the requested order.
Return: 5, 2, 3, 4, 1
(5: 1 nM, 2: 10 nM, 3: 25 nM, 4: 100 nM, 1: 1000 nM)

----------
- Target Of Assay: C-X-C chemokine receptor type 4 (Homo sapiens, UniProt P61073)
- Assay Explanation: Displacement of biotinylated TN14003 from CXCR4 in MDA-MB-231 cells
- Type: cell-based
Parameter Measured: EC50 (nM)
Please reply with the bare figure in nM and do not write the unit itself.

Enquiry: Give its EC50 value. Item: `c1ccc(NCc2ccc(CNc3ccccn3)cc2)nc1`
Return: 1

----------
- Target Of Assay: C-X-C chemokine receptor type 4 (Homo sapiens, UniProt P61073)
- Assay Explanation: Displacement of biotinylated TN14003 from CXCR4 in MDA-MB-231 cells
- Format: cell-based
Parameter Measured: EC (nM)

Examples with their reported EC follow.
c1ccc(NCc2ccc(CNc3ccccc3)cc2)cc1; 10
COc1cccc(NCc2ccc(CNc3cccc(OC)c3)cc2)c1; 1
c1ccc(NCc2cccc(CNc3ccccc3)c2)cc1; 10
O=[N+]([O-])c1ccc(NCc2ccc(CNc3ccc([N+](=O)[O-])cc3)cc2)cc1; 1000
c1ccc(NCc2ccc(CNc3ccccc3)c3ccccc23)cc1; 100

[I] Cc1cc(CNc2ccccc2)c(C)cc1CNc1ccccc1
[II] COc1cccc(NC(=O)c2ccc(C(=O)Nc3cccc(OC)c3)cc2)c1
[III] Cc1c(C)c(CNc2ccccc2)c(C)c(C)c1CNc1ccccc1
Enquiry: Rank descending by EC. Record the ranking as a list of labels in the requested order.
Return: II, I, III

----------
- Target Of Assay: C-X-C chemokine receptor type 4 (Homo sapiens, UniProt P61073)
- Assay Explanation: Displacement of biotinylated TN14003 from CXCR4 in MDA-MB-231 cells
- Assay type: cell-based
- Details: read-out: EC50
Parameter Measured: EC50 (nM)
Enter your answer as a number in nM; do not include the unit.

Enquiry: # input molecule: `c1ccc(NCc2ccc(CNc3ccccn3)cc2)nc1` ; wanted: its EC50
Return: 0.3
